Exercise: for every item that follows, state its recorded TGI.
- Tested on: OVCAR-8 ovarian
- assay-name: NCI tumour cell line growth inhibition, 48 h

// query Let me know recorded TGI for "O=C(O)c1ccccc1-c1ccccc1C(=O)c1ccccc1" , thanks.
// result > 100 µM

// query Let me know recorded TGI for "COc1ccc(C[C@H]2COC(=O)[C@@H]2Cc2cc(OC)c(OC)c(OC)c2)cc1OC" , thanks.
// result > 100 µM

// query Let me know recorded TGI for "COc1cc([C@@H]2c3cc4c(cc3[C@@H](Nc3ccc(Cl)cc3C(=O)c3ccccc3Cl)[C@H]3COC(=O)[C@H]23)OCO4)cc(OC)c1OC" , thanks.
// result > 36.2 µM

// query Let me know recorded TGI for CCC1NCC(=O)c2c1[nH]c1ccccc21 (stereo not given) , thanks.
// result > 100 µM

// query Let me know recorded TGI for "CC(C)n1nc(C#Cc2cccc(NC(=O)c3cccc(C(F)(F)F)c3)c2)c2c(N)ncnc21" , thanks.
// result > 100 µM

###

- Test system: HS 578T breast
- assay-name: NCI tumour cell line growth inhibition, 48 h
parameter-measured: TGI

// query Let me know recorded TGI for COC(=O)C1(Cc2ccccc2)Cc2ccccc2C1=O (centres undefined) , thanks.
// result > 100 µM

// query Let me know recorded TGI for COc1cccc(N2N=C3c4ccccc4-n4c(nc5ccccc54)C3C2N)c1 (centres undefined) , thanks.
// result > 100 µM

// query Let me know recorded TGI for "COC(=O)CNC(=O)/C=C/[C@H](O[Si](C)(C)C(C)(C)C)[C@H](/C=C/C(=O)NCC(=O)OC)O[Si](C)(C)C(C)(C)C" , thanks.
// result > 25 µM

// query Let me know recorded TGI for "Cc1ccc(S(=O)(=O)NC(=O)NS(=O)(=O)O)cc1" , thanks.
// result > 100 µM

###

Exercise: for every item that follows, state its recorded TGI.
- System: LOX IMVI melanoma
- assay-name: NCI tumour cell line growth inhibition, 48 h

// query Let me know recorded TGI for "CC(=O)N[C@@H]1CCC[C@H](C(=O)Nc2cc(-c3cnn4c3CC(C)(C)C4)c(Cl)cn2)C1" , thanks.
// result > 100 µM

// query Let me know recorded TGI for "COc1ccc(NC(=O)C2=C(SC)C(=O)N=C2N)cc1" , thanks.
// result > 100 µM

// query Let me know recorded TGI for "CCOc1cc(C=O)ccc1O" , thanks.
// result > 100 µM

// query Let me know recorded TGI for COC(=O)C1(Cc2ccccc2)Cc2ccccc2C1=O (stereo unspecified) , thanks.
// result > 100 µM

// query Let me know recorded TGI for "Cc1cc(S(=O)(=O)NC(=NCC(=O)NN)NN)c(S)cc1Cl" , thanks.
// result > 10 µM

// query Let me know recorded TGI for "COc1ccc(S(=O)(=O)NCCNc2nccc(-c3c(-c4ccccc4)nc4sccn34)n2)cc1" , thanks.
// result > 100 µM

###

- Test system: ACHN renal
- assay-name: NCI tumour cell line growth inhibition, 48 h
parameter-measured: TGI

// query Let me know recorded TGI for C/C(=C/CC[C@](C)(OC1OC(CO)C(O)C(O)C1O)[C@H]1CC[C@]2(C)[C@@H]1CC[C@@H]1[C@@]3(C)CC[C@H](O)C(C)(C)[C@@H]3C[C@H](O)[C@]12C)CO (stereo partly drawn) , thanks.
// result > 100 µM

// query Let me know recorded TGI for O=C1N2CCc3c([nH]c4ccccc34)C23CC2CCCC12S3 (stereo not drawn) , thanks.
// result > 50 µM

// query Let me know recorded TGI for CSc1nc(Br)nc2c1ncn2C1CC(Oc2ccc(C)cc2)C(COc2ccc(C)cc2)O1 (stereo not drawn) , thanks.
// result > 100 µM

###

- Tested on: MDA-MB-435
- assay-name: NCI tumour cell line growth inhibition, 48 h
Exercise: for every item that follows, state its recorded GI50.

// query Let me know recorded GI50 for "O=[N+]([O-])c1cccc(-c2ncc(-c3ccc(Cl)cc3Cl)[nH]2)c1" , thanks.
// result 3.62 µM

// query Let me know recorded GI50 for "COc1ccc(N=C2NN=C(c3c[nH]c4ccccc34)CS2)cc1OC" , thanks.
// result 1.3 µM

// query Let me know recorded GI50 for "Nc1ncnc2c1ncn2Cc1ccc(C23CC4CC(CC(C4)C2)C3)c(O)c1" , thanks.
// result 15 µM

// query Let me know recorded GI50 for "O=C(Nc1ccccc1)Nc1ccccc1CNc1nc(Nc2ccc(OCCN3CCCC3)cc2)ncc1Cl" , thanks.
// result 3.1 µM

// query Let me know recorded GI50 for O=C(NO)C(O)C(O)C(O)C(O)CO (stereo unspecified) , thanks.
// result > 100 µM

// query Let me know recorded GI50 for CCOC(=O)C1=C(c2ccccc2)N(Cc2ccccc2)C2(O)C=CC(=O)C3C(=O)N(c4ccccc4)C(=O)C132 (stereo unspecified) , thanks.
// result 1.95 µM

###

- System: HCT-116 colon
- assay-name: NCI tumour cell line growth inhibition, 48 h
Rule: yes for TGI not less than 30 µM, no for anything less.

// query I'd appreciate it if you could say whether CN(Cc1nc2c(N)nc(N)nc2nc1N)c1ccc(C(=O)NC(CCC(=O)O)C(=O)O)cc1 (stereo not drawn) has TGI at least equal to 30 µM.
// result yes

// query I'd appreciate it if you could say whether CC1(C)CC2(C)OC2C2(C1)N=NC(=Nc1ccccc1)O2 (stereo not drawn) has TGI at least equal to 30 µM.
// result no

// query I'd appreciate it if you could say whether "CN1C(=O)[C@@]2(C=CC3(CC2)OCCO3)c2ccccc21" has TGI at least equal to 30 µM.
// result yes

// query I'd appreciate it if you could say whether "COC(=O)c1cc2c3c(c(C(C)=O)c(OC)c2[nH]1)NCC3" has TGI at least equal to 30 µM.
// result yes

// query I'd appreciate it if you could say whether "O=C(CN=Cc1cccs1)CSC(c1ccccc1)c1ccccc1" has TGI at least equal to 30 µM.
// result yes

// query I'd appreciate it if you could say whether "C[C@H](NC(=O)CCC(F)(F)F)C(=O)N[C@@H]1C(=O)N(CCO)c2ncccc2-c2ccccc21" has TGI at least equal to 30 µM.
// result yes

// query I'd appreciate it if you could say whether "CCCCCCN1C(=O)CN=C1Nc1ccc2cc3ccc(NC4=NCC(=O)N4CCCCCC)cc3nc2c1" has TGI at least equal to 30 µM.
// result no

// query I'd appreciate it if you could say whether "C=C1c2nc3ccccc3n2C=C(c2ccccc2)N1c1ccc(OC)cc1" has TGI at least equal to 30 µM.
// result yes

// query I'd appreciate it if you could say whether "O=C(O)CNC(=O)c1cccc2c(=O)c3ccccc3[nH]c12" has TGI at least equal to 30 µM.
// result yes

// query I'd appreciate it if you could say whether Clc1ccccc1C1=NN(c2ccccc2)C2c3cc(Br)ccc3OCC12 (stereo not drawn) has TGI at least equal to 30 µM.
// result yes

// query I'd appreciate it if you could say whether CCC1(O)CN(CCOC)[C@H]2C[C@@H]1C(=O)c1[nH]c3ccccc3c12 (stereo partly drawn) has TGI at least equal to 30 µM.
// result yes

// query I'd appreciate it if you could say whether CC(C)[Si]1(C(C)C)OCC2OC(n3cnc4c(N)ncnc43)C(N)C2O[Si](C(C)C)(C(C)C)O1 (stereo not drawn) has TGI at least equal to 30 µM.
// result no

// query I'd appreciate it if you could say whether CCCCC(=C=C1CCCCC1O)C1CCCN1C(=O)OC(C)(C)C (stereo not drawn) has TGI at least equal to 30 µM.
// result no

// query I'd appreciate it if you could say whether COc1cccc(N2N=C3c4ccccc4-n4c(nc5ccccc54)C3C2N)c1 (stereo not drawn) has TGI at least equal to 30 µM.
// result yes

// query I'd appreciate it if you could say whether "COc1ccc(N=C2NN=C(c3c[nH]c4ccccc34)CS2)cc1OC" has TGI at least equal to 30 µM.
// result yes

// query I'd appreciate it if you could say whether CCCCCCCC(CC(=O)O)OC(=O)CC(CCCCCCC)OC1OC(C)C(O)C(O)C1OC1OC(C)C(O)C(O)C1O (stereo not drawn) has TGI at least equal to 30 µM.
// result yes

// query I'd appreciate it if you could say whether "COc1cc(C(=O)/C=C/c2c(C(F)(F)F)nc3sccn23)cc(OC)c1OC" has TGI at least equal to 30 µM.
// result no

// query I'd appreciate it if you could say whether "CN(C)c1ccc(Sc2ccc3nc(N)nc(N)c3c2)cc1" has TGI at least equal to 30 µM.
// result no

// query I'd appreciate it if you could say whether "C[C@@H](C[C@@H](O)[C@H](O)C(C)(C)O)[C@H]1CC=C2[C@]3(C)[C@H](O)C[C@H]4C(C)(C)[C@H](O)CC[C@]4(C)[C@H]3CC[C@@]21C" has TGI at least equal to 30 µM.
// result yes

// query I'd appreciate it if you could say whether "O=C(O)c1ccccc1-c1ccccc1C(=O)c1ccccc1" has TGI at least equal to 30 µM.
// result yes

// query I'd appreciate it if you could say whether "CN1CCN(C(=S)SCN2C(=O)c3ccccc3S2(=O)=O)CC1" has TGI at least equal to 30 µM.
// result yes

// query I'd appreciate it if you could say whether "CCN(CC)CCOc1ccc(C2=C(c3ccccc3)CCc3cc(OC)ccc32)cc1" has TGI at least equal to 30 µM.
// result no

// query I'd appreciate it if you could say whether "CC(=O)N[C@@H]1CCC[C@H](C(=O)Nc2cc(-c3cnn4c3CC(C)(C)C4)c(Cl)cn2)C1" has TGI at least equal to 30 µM.
// result yes

// query I'd appreciate it if you could say whether "N#Cc1ccc(N2Cc3cc(Cl)ccc3OC3=C2C(=O)N(Cc2ccccc2)C3=O)cc1" has TGI at least equal to 30 µM.
// result no

// query I'd appreciate it if you could say whether "N#CC(=C=[N-])[n+]1ccc(Cl)cc1" has TGI at least equal to 30 µM.
// result yes

Data origin: PubChem BioAssay (NCI)
